assay: Leishmania major promastigote growth inhibition, primary screen (AID 1063); settings: Leishmania major promastigotes, resazurin fluorescence viability; at 10 µM; active compounds read high;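 also: promastigotes grown with compound for 44 hours at 28 °C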
The whole screen tested about 200,000 compounds, of which about 18,000 (9%) were called active. This excerpt belongs to a sample that is enriched for actives.
quantity_measured: inhibition (%)
Expressed in %, but write only the number.

Specify reported inhibition for the compound shown: COc1cccc(-c2ccc(C#N)c(SCC(=O)NCCc3ccc(Cl)cc3)n2)c1
50.9

Specify reported inhibition for the compound shown: CCOc1ccc(CN(Cc2ccco2)C(c2cccs2)c2nnnn2C(C)(C)C)cc1 (stereo not given)
73

Specify reported inhibition for the compound shown: O=C(COc1ccc(NC(=O)c2ccccc2[N+](=O)[O-])cc1)c1ccc(F)cc1
-3.68

Specify reported inhibition for the compound shown: COc1ccc(/C=N/NC(=O)c2cccc(C(F)(F)F)c2)cc1
12

Specify reported inhibition for the compound shown: CC1CCCCC1NC(=O)CO/N=C/c1ccc(OC(F)F)cc1 (stereo not given)
13.4

Specify reported inhibition for the compound shown: COc1ccccc1OCc1ccc(C(=O)N2CCN(C)CC2)o1
-7.4

Specify reported inhibition for the compound shown: COc1cc2c(C(=O)N3CCN(C)CC3)c(CSc3ccccc3)n(C)c2cc1Br
50.6

Specify reported inhibition for the compound shown: S=c1ccc2ccccc2[nH]1
-8.39

Specify reported inhibition for the compound shown: CN(NC(=O)C1CC(=O)N(c2ccccc2)C1)C1=NS(=O)(=O)c2ccccc21 (stereo not given)
-0.26

Specify reported inhibition for the compound shown: O=C(CN1CCC(O)(c2ccccc2)CC1)Nc1ccc2c(c1)OCCO2
3.55

Specify reported inhibition for the compound shown: CCC(=O)Nc1ccc(C(=O)N2CCN(C(=O)c3ccco3)CC2)cc1
0.95

Specify reported inhibition for the compound shown: COc1ccccc1-n1ccnc1SCC(=O)NC(C)(C)C
-1.52

Specify reported inhibition for the compound shown: O=S(=O)(NC1CC1)c1ccc2c3c(cccc13)CC2
3.72

Specify reported inhibition for the compound shown: CCCCN(CC)C(=S)Nc1ccc2nc3n(c(=O)c2c1)CCCCC3
55.5

Specify reported inhibition for the compound shown: CC(C)(C)CN1CCNC(=O)C1CC(=O)NC1Cc2ccccc2C1 (stereo not given)
-0.33

Specify reported inhibition for the compound shown: CN(C)/C=C(/C(=O)c1ccccc1)S(=O)(=O)c1ccc(Cl)cc1
-6.81

Specify reported inhibition for the compound shown: Cc1ccnc(NC(=O)c2ccc(Cl)c([N+](=O)[O-])c2)c1
28.8

Specify reported inhibition for the compound shown: CCc1ccccc1NC(=O)Cc1cn(C)c2ccccc12
1.32

Specify reported inhibition for the compound shown: CCOC(=O)CSC1=N/C(=C/c2ccc(-n3cncn3)cc2)C(=O)N1C(C)=O
8.27

Specify reported inhibition for the compound shown: Cn1c(=O)c2c(ncn2CC(=O)N/N=C/c2cn[nH]c2-c2ccc(F)cc2)n(C)c1=O
-7.31

Specify reported inhibition for the compound shown: Cc1coc(C)c1C(=O)CC1(O)C(=O)N(C)c2ccc(Cl)cc21 (stereo not given)
1.6

Specify reported inhibition for the compound shown: O=C(NCc1ccc(Cl)cc1)NCc1ccc(Cl)cc1
-7.12

Specify reported inhibition for the compound shown: O=C(CCN1CCc2ccccc2C(O)(c2ccccc2)C1)c1ccc2c(c1)OCCO2 (stereo not given)
95.3

Specify reported inhibition for the compound shown: COc1ccc(NC(=O)CCNS(=O)(=O)c2ccc3c(c2)c(=O)n(C)c(=O)n3C)cc1OC
-8.95

Specify reported inhibition for the compound shown: C=CCNCCCCOc1ccccc1
34.8

Specify reported inhibition for the compound shown: CC(C)(C)NC(=O)C(=O)NCc1ccncc1
77.7

Specify reported inhibition for the compound shown: CCNC(=O)COc1cc(C)c(Br)c(C)c1
-1.41

Specify reported inhibition for the compound shown: CC(C)(C)n1nnnc1C(c1cccs1)N(Cc1cccnc1)CC1CCCO1 (stereo not given)
18.7

Specify reported inhibition for the compound shown: CCc1cccc2c(=O)c(C(=O)NCCCOC)c[nH]c12
-1.23

Specify reported inhibition for the compound shown: CCOC(=O)CSc1nc2c(sc(=S)n2CCc2ccccc2)c(=O)n1Cc1ccco1
50.2

Specify reported inhibition for the compound shown: Cc1cc(NS(=O)(=O)c2ccc(NC(=S)NC(=O)c3ccc(F)cc3Cl)cc2)no1
48.3

Specify reported inhibition for the compound shown: Cc1cc(OC(=O)c2ccccc2)c([N+](=O)[O-])c(=O)[nH]1
-2.98

Specify reported inhibition for the compound shown: COc1ccc(Br)cc1CN1CCN(C(=O)c2cccc(OC)c2OC)CC1
0.16

Specify reported inhibition for the compound shown: COc1ccc(Cl)cc1NC(=O)C(C)N1CCc2ccccc21 (stereo not given)
16.9

Specify reported inhibition for the compound shown: Cc1ccc(-n2ncc3c(=O)n(-c4ccc(C)c(C)c4)c(-c4ccco4)nc32)cc1
51.5

Specify reported inhibition for the compound shown: CCCN(CCC)CCCNC(=O)CNC(=O)c1nn(-c2ccc(OC)cc2)c(=O)c2ccccc12
1.38

Specify reported inhibition for the compound shown: CCOc1cc(CNn2c(C)nnc2SCC(=O)NC(C)(C)C)ccc1OCC(=O)NC(C)(C)C
0.56

Specify reported inhibition for the compound shown: CC(C)(C)C(=O)CSc1nc2ccccc2o1
4.86

Specify reported inhibition for the compound shown: COc1ccccc1NC(=O)CSc1nc2sc(C)c(C)c2c(=O)n1Cc1ccco1
7.51

Specify reported inhibition for the compound shown: CC(=O)c1ccc(NC(=O)CSC(=S)N2CCCC2)cc1
-5.47

Specify reported inhibition for the compound shown: O=C(CN1CCN(c2ccc(Cl)cc2)CC1)NCc1cccs1
-4.73

Specify reported inhibition for the compound shown: CCCC(C)C(=O)NCc1ccncc1 (stereo not given)
-1.46

Specify reported inhibition for the compound shown: COc1ccc(CCNC(=O)CSc2nc(-c3ccc(OC)c(OC)c3)ccc2C#N)cc1
27.6

Specify reported inhibition for the compound shown: O=C(CSc1ccsc1[N+](=O)[O-])N1CCCCC1
14.2

Specify reported inhibition for the compound shown: Cc1sc(NC(=S)NC(=O)c2cccs2)nc1-c1ccc(CC(C)C)cc1
-14.6
